- System: Escherichia coli
- experiment_notes: Concentration required for 90 percent inhibition of [14C]- pen-G binding to Escherichia coli DCO PBP1b 90 KDa
readout: Concentration (µg/mL)
Give bare numbers, in µg/mL.

See these solved cases before continuing.
| compound_structure | Concentration / µg/mL |
| --- | --- |
| CC1(C)S[C@@H]2[C@H](NC(=O)[C@H](CCCCN)c3ccccc3)C(=O)N2[C@H]1C(=O)O | 100 |
| CC1(C)S[C@@H]2[C@H](NC(=O)[C@@H](CCCCN)c3ccccc3)C(=O)N2[C@H]1C(=O)O | 100 |
| CC1(C)S[C@@H]2[C@H](NC(=O)[C@H](N)c3ccccc3)C(=O)N2[C@H]1C(=O)O | 10 |

Record Concentration per entry; entries follow.
1. CC1(C)S[C@@H]2[C@H](NC(=O)Cc3ccccc3)C(=O)N2[C@H]1C(=O)O
2. CC(=O)NCCCC[C@H](C(=O)N[C@@H]1C(=O)N2[C@@H]1SC(C)(C)[C@@H]2C(=O)O)c1ccccc1

10
100

Where do the numbers come from? From ChEMBL document CHEMBL1151601.
